target: Cannabinoid receptor 2 (Homo sapiens, UniProt P34972); experiment: Displacement of [3H]-CP55940 from human CB2 receptor expressed in CHO cells preincubated for 1 hr followed by radioligand addition measured after 1 hr by liquid scintillation counting analysis
Sequence (P34972 whole entry): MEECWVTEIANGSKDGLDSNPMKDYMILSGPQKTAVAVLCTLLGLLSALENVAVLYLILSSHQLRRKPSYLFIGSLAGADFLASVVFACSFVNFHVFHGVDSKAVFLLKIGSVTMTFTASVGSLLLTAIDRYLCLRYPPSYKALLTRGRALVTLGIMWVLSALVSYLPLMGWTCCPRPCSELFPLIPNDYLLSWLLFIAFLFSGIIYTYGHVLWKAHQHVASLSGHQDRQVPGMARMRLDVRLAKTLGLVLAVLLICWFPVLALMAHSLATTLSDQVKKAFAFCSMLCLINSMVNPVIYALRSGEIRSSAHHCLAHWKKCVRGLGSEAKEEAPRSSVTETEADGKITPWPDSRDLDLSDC
Attribute: pIC50
Worth noting: pIC50 values are minus log10 of concentrations stated in mol/L.

State its pIC50 on Cannabinoid receptor 2 (Homo sapiens, UniProt P34972): CC/C=C/C/C=C\CC/C=C/C=C/C(=O)NCC(C)(C)O
5.04

State its pIC50 on Cannabinoid receptor 2 (Homo sapiens, UniProt P34972): C/C=C/C=C/C=C/CC/C=C/C(=O)NCC(C)(C)O
6.88

State its pIC50 on Cannabinoid receptor 2 (Homo sapiens, UniProt P34972): C/C=C/C=C/C=C\CC/C=C/C(=O)NCC(C)(C)O
7.23

State its pIC50 on Cannabinoid receptor 2 (Homo sapiens, UniProt P34972): C/C=C/C=C/C=C\CC/C=C/C=C/C(=O)NCC(C)(C)O
6.71

State its pIC50 on Cannabinoid receptor 2 (Homo sapiens, UniProt P34972): C/C=C/C=C/C=C/CC/C=C/C=C/C(=O)NCC(C)(C)O
6.65

State its pIC50 on Cannabinoid receptor 2 (Homo sapiens, UniProt P34972): C/C=C/C=C/C=C\CC/C=C/C(=O)NCC(C)(O)CO (stereo not drawn)
6.77

State its pIC50 on Cannabinoid receptor 2 (Homo sapiens, UniProt P34972): CCCCCCCCC/C=C/C=C/C(=O)NCC(C)(C)O [TETRAHYDROBUNGEANOOL]
8.70

State its pIC50 on Cannabinoid receptor 2 (Homo sapiens, UniProt P34972): C/C=C/C=C/C=C/CC/C=C/C=C/C(=O)NCC(C)C
6.18
